# System: MDRSA 11.7
# assay.comment: Broth microdilution MIC, MDRSA 11.7
# Format: cell-based, Staphylococcus aureus
# cond: Staphylococcus aureus, read-out: MIC
property.measured: MIC (µg/mL)
Respond with the bare value in µg/mL.

MIC recorded for this molecule, NC(=O)c1c(F)ccc(OCCC2CSc3ccccc3O2)c1F (stereo not shown) , is 8

MIC recorded for this molecule, NC(=O)c1c(F)ccc(OCC2COc3ccccc3O2)c1F (stereo not shown) [III, reference compound] , is 16

MIC recorded for this molecule, NC(=O)c1c(F)ccc(OCCC2COc3ccccc3O2)c1F (stereo not shown) , is 4

MIC recorded for this molecule, NC(=O)c1c(F)ccc(OCCCC2COc3ccccc3O2)c1F (stereo not shown) , is 32
